test: Partition coefficient (logP); format: physicochemical; conditions: octanol/water; read-out: logP
ENDPOINT_LABEL: logP

[I] Nc1ccc(C2=NNC(=O)Cc3cc4c(cc32)OCO4)cc1
[II] CCCCOC(=O)Cc1cc2c(cc1/C(=N/NC(=O)NC)c1ccc(N)cc1)OCO2
Ask: I or II : whose logP is greater? State the label of the item chosen.
Result: II

====

assay: Toxicity assessed by Rotarod test (locomotor deficit) in mice.; assay type: organism-based; settings: mouse, in vivo
ENDPOINT_LABEL: TD50 (µmol/kg)
Give the number; µmol/kg is assumed, so skip it.

{"columns": ["COMPOUND", "TD50 / µmol/kg"],
 "data": [
  ["CCCCNC(=O)N1N=C(c2ccc(N)cc2)c2cc3c(cc2CC1=O)OCO3", 108]
]}

Ask: Can you look up the measured TD50 of CCCCOC(=O)Cc1cc2c(cc1/C(=N/NC(=O)NCC)c1ccc(N)cc1)OCO2 for me?
Result: 117

Ask: Fill blank: measured TD50 of the compound CCCNC(=O)N1N=C(c2ccc(N)cc2)c2cc3c(cc2CC1=O)OCO3 is ____.
Result: 182

Ask: Given the compound CNC(=O)N/N=C(\c1ccc(N)cc1)c1cc2c(cc1CC(=O)OC)OCO2 (stereo in doubt; 29) , what is its reported TD50?
Result: 38.6

Ask: # lookup: TD50 of CCCCOC(=O)Cc1cc2c(cc1/C(=N/NC(=O)NC)c1ccc(N)cc1)OCO2
Result: 179
